- System: NCI-H522 lung
- ASSAY EXPLANATION: NCI tumour cell line growth inhibition, 48 h
Catalogue of TGI values

Prompt: # return recorded TGI for entry `CC(C)N(C(=O)c1cccc(C(=O)N(C(C)C)C(C)C)c1)C(C)C`
Response: > 100 µM

Prompt: # return recorded TGI for entry `Cc1cc(-n2nnc(C(=O)O)c2-c2ccccc2)c2ccc(Cl)cc2n1`
Response: > 100 µM

Prompt: # return recorded TGI for entry `Cn1cccc1-c1ccc(-c2ccc(CO)[se]2)[se]1`
Response: 50.1 µM

Prompt: # return recorded TGI for entry `O=[N+]([O-])c1cccc(/C=N/NC2=CS(=O)(=O)C=C2)c1`
Response: > 100 µM

More entries:
Prompt: # return recorded TGI for entry CCOC(=O)C1CC(C(=O)c2ccccc2)N2c3ccccc3-c3ccccc3C12 (stereo unspecified)
Response: > 100 µM

Prompt: # return recorded TGI for entry `C[N+]1=c2c3cccc4cccc(c(=O)n2CC1)c43`
Response: 24.4 µM

Prompt: # return recorded TGI for entry `Clc1sc(Cl)c2c1[C@@H](Cl)C[C@@H]2Cl`
Response: 58.2 µM

Prompt: # return recorded TGI for entry `C=CO/N=[N+](\[O-])N(CC)CC`
Response: > 100 µM

Prompt: # return recorded TGI for entry `C(/C=N/NC1=NCCCCN1)=N\NC1=NCCCCN1`
Response: > 100 µM

Data origin, for the record: PubChem BioAssay (NCI)
